assay-method-text: soluble on expression in E. coli; label from the status in PepcDB or PDB records

{"chain-sequence": "MKEVMLFPLTSVVLPEGKMNLRIFEPRYKRMVKECSLQNVGFGVCLVGSEGDPKDVGNVSSIGTLVRIVDFETLSDGLLGITVAGEKRFVIKRVRADSDGLRHAEVEWLDNWQTPSQQLDFGYLSQQLAQVYEQFPQLGTLYQHRFYDDPIWVTQRWLELLPLDSHLFESLVGAQDCRPALRFLNQAIEAPSNKEARILEHHHHHH", "soluble on expression in E. coli": "soluble"}
{"chain-sequence": "LPNITILATGGTIAGGGDSATKSNYTVGKVGVENLVNAVPQLKDIANVKGEQVVNIGSQDMNDNVWLTLAKKINTDCDKTDGFVITHGTETMEETAYFLDLTVKCDKPVVMVGAMRPSTSMSADGPFNLYNAVVTAADKASANRGVLVVMNDTVLDGRDVTKTNTTDVATFKSVNYGPLGYIHNGKIDYQRTPARKHTSDTPFDVSKLNELPKVGIVYNYANASDLPAKALVDAGYDGIVSAGVGNGNLYKSVFDTLATAAKTGTAVVRSSRVPTGATTQDAEVDDAKYGFVASGTLNPQKARVLLQLALTQTKDPQQIQQIFNQY", "soluble on expression in E. coli": "soluble"}
